target: Rap guanine nucleotide exchange factor 3 (Homo sapiens) (UniProt O95398); experiment: Counterscreen qHTS for antagonist of cAMP-regulated guanine nucleotide exchange factor 3 (EPAC1) (AID 1645888); details: Rap1B-BODIPY-GDP nucleotide exchange, fluorescence; series mostly up to 154 µM;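 note: fluorescence loss as bound BODIPY-GDP is released from Rap1B; % of control where 0% means no effect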
Sequence (O95398 whole entry, looked up): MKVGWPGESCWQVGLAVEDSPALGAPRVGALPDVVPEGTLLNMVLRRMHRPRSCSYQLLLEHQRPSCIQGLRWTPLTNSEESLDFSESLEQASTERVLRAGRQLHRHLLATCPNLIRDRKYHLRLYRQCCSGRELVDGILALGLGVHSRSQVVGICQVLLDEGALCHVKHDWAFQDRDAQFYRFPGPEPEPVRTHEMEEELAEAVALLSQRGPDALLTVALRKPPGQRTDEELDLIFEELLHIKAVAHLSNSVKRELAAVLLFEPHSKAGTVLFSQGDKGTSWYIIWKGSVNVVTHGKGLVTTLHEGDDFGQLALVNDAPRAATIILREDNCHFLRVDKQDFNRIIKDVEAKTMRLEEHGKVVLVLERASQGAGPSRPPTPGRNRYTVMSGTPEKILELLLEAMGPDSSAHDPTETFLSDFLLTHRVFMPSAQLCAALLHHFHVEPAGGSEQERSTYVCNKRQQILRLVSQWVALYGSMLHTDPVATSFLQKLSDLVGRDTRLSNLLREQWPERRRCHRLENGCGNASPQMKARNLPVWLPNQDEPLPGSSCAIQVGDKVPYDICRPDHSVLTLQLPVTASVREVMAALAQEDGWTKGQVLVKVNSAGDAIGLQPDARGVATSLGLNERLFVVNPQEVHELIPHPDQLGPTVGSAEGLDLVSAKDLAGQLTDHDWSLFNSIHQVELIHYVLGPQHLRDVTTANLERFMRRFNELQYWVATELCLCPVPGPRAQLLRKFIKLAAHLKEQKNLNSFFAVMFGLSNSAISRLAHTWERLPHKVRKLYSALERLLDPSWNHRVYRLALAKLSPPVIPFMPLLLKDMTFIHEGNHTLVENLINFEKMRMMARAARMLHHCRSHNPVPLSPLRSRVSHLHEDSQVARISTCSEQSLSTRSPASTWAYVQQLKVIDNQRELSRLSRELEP
Inconclusive results are not listed. Activity calls are given as the source filed them. Calls come from the whole dose curve; as a rule, active = well fitted inhibition curve with a large enough effect; inconclusive = small, poorly fitted or top-dose-only effect; inactive = no such curve, though single readings can be large or run the other way.
recorded_metric: activity change, negative = inhibition

> print(dat)
                                    molecule                 endpoint.result
 1  O=C(NC1(O)C(=O)c2ccccc2C1=O)c1c(Cl)cccc1Cl                        inactive
 2  CCCCCOC(=O)C1=C(C)Nc2nnnn2C1c1ccccc1Cl (configuration not stated)  -14.1% [at 30.8 µM] (inactive)
 3  CCc1nnc(NS(=O)(=O)c2ccc(N/C=C\C(=O)c3ccc4ccccc4c3)cc2)s1  -10.2% [at 30.8 µM] (inactive)
 4  C[C@H](CO)N1C[C@H](C)[C@@H](CN(C)C)Oc2c(NS(=O)(=O)c3ccccc3)cccc2C1=O                        inactive
 5  COc1ccc2ccc(C(C)(C(C)=O)C(=O)OC(C)C)cc2c1 (configuration not stated)  -29.5% [at 30.8 µM] (inactive)
 6  CCOC(=O)c1ccc(/C=C2/C=C(c3ccccc3)N(c3ccc(Cl)c(C(=O)O)c3)C2=O)cc1                        inactive
 7       O=c1ccc(-c2ccccc2)nn1Cc1ccc(F)cc1Cl                        inactive
 8  COC(=O)c1sc(-c2ccc(C(C)(C)C)cc2)cc1NC(=O)CSCC(=O)O                        inactive
 9  NS(=O)(=O)c1ccc(N/N=C/c2ccccc2C(=O)O)c([N+](=O)[O-])c1                        inactive
10  O=C(N/N=C/c1coc2ccc(Cl)cc2c1=O)c1cc(O)cc(O)c1                        inactive
11  Cc1cccc(-n2c(N)c(-c3nc4ccccc4n3C)c3nc4ccccc4nc32)c1  -16.7% [at 30.8 µM] (inactive)
12  CC(C)(C)NC(=O)COC(=O)c1c2c(nc3ccccc13)CCC2  -10.2% [at 30.8 µM] (inactive)
13  Cc1ccc(C)c(S(=O)(=O)Nc2ccc(C(=O)NCC(c3ccco3)N(C)C)cc2)c1 (configuration not stated)  -1.62% [at 30.8 µM] (inactive)
14          CC(=Nc1ccc(C)cc1C)c1sc2ccccc2c1O                        inactive
15      O=C1N(Cc2ccccc2)c2ccc(Cl)cc2C12OCCO2  -8.76% [at 30.8 µM] (inactive)
16  O=C(N/N=C/c1cc(Cl)c(O)c(Cl)c1)c1cc2c(ccc3ccccc32)o1                        inactive
17                   O=C(/C=N/O)NCCCN1CCOCC1                        inactive
18     COCCN(CCOC)Cc1cc(=O)oc2cc(C)c(Cl)cc12                        inactive
19  COc1ccc(OC)c(NS(=O)(=O)c2cc3c4c(c2)CCN4C(=O)CC3)c1                        inactive
20  Cc1cc(N2CCN(c3cccc(C(F)(F)F)c3)CC2)n2nc(-c3ccccc3C)nc2n1                        inactive
21  C[C@@H]1ON(C)[C@H]2C[C@H]3c4[nH]c5ccc(-c6ccc7c(c6)OCO7)cc5c4CCN3C(=O)[C@@H]12  -7.04% [at 30.8 µM] (inactive)
22  Cc1ccc(C)c(Oc2nc3c(c(=O)n(C)c(=O)n3C)n2Cc2ccccc2)c1                        inactive
23  CC(C)n1nccc1N(Cc1ccc(Cl)cc1)S(=O)(=O)c1ccccc1                        inactive
24       C=Cc1ccc(Cn2nc(-c3ccccc3)ccc2=O)cc1  -16.6% [at 30.8 µM] (inactive)
25  Cc1ccc(C)c(NC(=O)N2CCN3CCCCC3C2)c1 (configuration not stated)                        inactive
26        O=S(=O)(Nc1nc2ccc(Cl)cc2s1)c1cccs1  -17.1% [at 30.8 µM] (inactive)
27  CCSC1=NSC2=NC(=O)/C(=C\c3coc4ccccc4c3=O)C(=N)N12   72.5% [at 30.8 µM] (inactive)
28  O=C(NNc1cc(N2CCOCC2)nc(N2CCOCC2)n1)c1ccc([N+](=O)[O-])cc1                        inactive
29  CCOC(=O)CSc1nc2c(c(=O)n(C)c(=O)n2C)n1Cc1ccccc1F                        inactive
30  NS(=O)(=O)c1ccc(N/N=C/c2ccc(C(=O)O)cc2)c([N+](=O)[O-])c1                        inactive
31  CCc1ccc([C@@H]2CC=C(C(=O)O)[C@H](c3ccc(Cl)cc3)N2S(=O)(=O)c2ccc(C)cc2)cc1  -9.33% [at 30.8 µM] (inactive)
32  O=C(COc1ccc(F)cc1Br)NCC1COc2ccccc2O1 (configuration not stated)                        inactive
33  CCOC(=O)C1=C(C)NC(C)=C(C(=O)OCC)C1C(=O)OCC(=O)NCc1ccc(F)cc1                        inactive
34          O=C(N/N=C/c1ccoc1)c1cc(O)cc(O)c1                        inactive
35  O=C(NCc1ccc(F)cc1)c1cccc2c1C(=O)c1ccc(N3CCC(Cc4ccccc4)CC3)cc1S2(=O)=O   83.7% [at 30.8 µM] (inactive)
36  CCN(CC)c1ccc2c(c1)OC(N)=C(C#N)C2c1cccnc1 (configuration not stated)                        inactive
37  O=C(c1sc2cc(F)ccc2c1Cl)N1CCN(c2ccccc2)CC1                        inactive
38     O=C1Nc2ccccc2/C1=N\N=C\c1ccc(O)c(O)c1                        inactive
39  COc1ccc2c(c1)Cc1sc(NC(=O)c3ccccc3C)nc1-2                        inactive
40  Cc1ccc(O)c(CNc2ccc(S(=O)(=O)Nc3nccs3)cc2)c1   1.37% [at 30.8 µM] (inactive)
41   CCOc1cc2c3c(c1)C(C)=CC(C)(C)N3C(=O)C2=O  -14.8% [at 30.8 µM] (inactive)
42  Cc1cc(Cl)ccc1OCCCC(=O)OCC(=O)c1c(N)n(C)c(=O)n(C)c1=O  -16.7% [at 30.8 µM] (inactive)
